molecular target: MGL (Rattus norvegicus, UniProt Q8R431); construct: one g rat brain was homogenized using a Polytron homogenizer; from tissue; host or cells: rat brain homogenate; assay: 2-AG accumulation assay in rat brain homogenate; assay type: biochemical; conditions: rat brain homogenate; compound 1 μM; 2-AG accumulation as percent of vehicle; read-out: Rat Brain 2AG % VehCntrl (%) @ 1 μM
Sequence (Q8R431 whole entry): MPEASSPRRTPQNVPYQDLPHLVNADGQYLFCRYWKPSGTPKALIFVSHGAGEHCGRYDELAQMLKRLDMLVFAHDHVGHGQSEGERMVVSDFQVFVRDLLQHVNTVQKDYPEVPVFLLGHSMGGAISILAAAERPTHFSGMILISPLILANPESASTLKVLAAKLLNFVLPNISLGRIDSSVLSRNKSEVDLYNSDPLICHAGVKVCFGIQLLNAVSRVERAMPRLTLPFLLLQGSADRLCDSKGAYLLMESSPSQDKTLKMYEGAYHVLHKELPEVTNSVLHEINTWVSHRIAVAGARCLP
ENDPOINT_NAME: 2-AG accumulation, % of vehicle control at 1 µM (%)

Prompt: Param readout = 2-AG accumulation, % of vehicle control at 1 µM; param system = MGL (Rattus norvegicus, UniProt Q8R431); param query = `Cc1cc(C(=O)N2CC(N3CCN(C(=O)c4nccs4)CC3)C2)sc1-c1ccc(F)cc1` ; response: value
Completion: 545

Prompt: Param readout = 2-AG accumulation, % of vehicle control at 1 µM; param system = MGL (Rattus norvegicus, UniProt Q8R431); param query = `O=C(c1cscn1)N1CCN(C2CN(C(=O)c3ccc(-c4cccc(C(F)(F)F)c4)cc3Cl)C2)CC1` ; response: value
Completion: 586

(1) O=C(c1cccc(-c2cccc(F)c2)c1)N1CC(N2CCN(C(=O)c3nccs3)CC2)C1
(2) O=C(c1ccccc1)N1CCN(C2CN(C(=O)c3ccc(Sc4cccc(C(F)(F)F)c4)cc3)C2)CC1
Prompt: Lab note: record which item had the higher 2-AG accumulation, % of vehicle control at 1 µM, 1 or 2 . Please respond with the label that marks your chosen entry.
Completion: 1

* * *

Target: purified wild type MGL (wt-MGLL 6H-11-313) (Homo sapiens, UniProt Q99685)
Sequence (Q99685 1-303): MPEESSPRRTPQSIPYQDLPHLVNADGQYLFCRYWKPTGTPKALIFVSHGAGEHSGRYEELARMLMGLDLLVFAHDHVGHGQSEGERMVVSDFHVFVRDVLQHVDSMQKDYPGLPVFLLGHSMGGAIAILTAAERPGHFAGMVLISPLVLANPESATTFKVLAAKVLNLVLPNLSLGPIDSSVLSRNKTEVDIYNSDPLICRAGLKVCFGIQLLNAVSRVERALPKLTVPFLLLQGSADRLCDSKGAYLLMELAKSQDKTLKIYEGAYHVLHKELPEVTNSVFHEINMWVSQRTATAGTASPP
ENDPOINT_NAME: IC50 (nM)

Prompt: Param readout = IC50; param system = purified wild type MGL (wt-MGLL 6H-11-313) (Homo sapiens, UniProt Q99685); param query = Cn1cc(Cc2ccc(F)cc2)c2ccc(C(=O)N3CC(N4CCN(C(=O)c5cscn5)CC4)C3)cc21 [Cpd 1027] ; response: value
Completion: 14

(P) O=C(c1ccc(Oc2ccccn2)cc1)N1CC(N2CCN(C(=O)C(F)(F)F)CC2)C1 [Cpd 869]
(Q) O=C(c1ccc(-n2nccc2-c2ccc(F)cc2)cc1)N1CC(N2CCN(C(=O)c3nccs3)CC2)C1 [Cpd 1412]
(R) O=C(c1ccccc1)N1CCN(C2CN(C(=O)c3sc4cc(C(F)(F)F)ccc4c3-c3ccccc3)C2)CC1 [Cpd 591]
Prompt: Order the items by recorded IC50; the first position goes to the largest value. Respond with an ordered listing of the labels, as requested.
Completion: P, R, Q
(P: 12900 nM, R: 212 nM, Q: 87 nM)

* * *

biological target: MGL (Rattus norvegicus); construct: one g rat brain was homogenized using a Polytron homogenizer; from tissue; host or cells: rat brain homogenate; assay: 2-AG accumulation assay in rat brain homogenate; format: biochemical; settings: rat brain homogenate; compound 1 μM; 2-AG accumulation as percent of vehicle; read-out: Rat Brain 2AG % VehCntrl (%) @ 1 μM
ENDPOINT_NAME: 2-AG accumulation, % of vehicle control at 1 µM (%)

Prompt: // returns reported 2-AG accumulation, % of vehicle control at 1 µM for input Cc1cn(-c2cccc(OC(F)(F)F)c2)c2ccc(C(=O)N3CC(N4CCN(C(=O)c5nccs5)CC4)C3)cc12 [Cpd 1068]
Completion: 849

(P) O=C(c1ccc(-c2ccccc2)cc1)N1CC(N2CCN(C(=O)c3ccco3)CC2)C1 [Cpd 6]
(Q) O=C(c1ccc(Oc2cccc(Cl)c2)c(F)c1)N1CC(N2CCN(C(=O)c3cscn3)CC2)C1 [Cpd 662]
Prompt: Consider entries P and Q . Which has the numerically lower 2-AG accumulation, % of vehicle control at 1 µM? Please respond with the label that marks your chosen entry.
Completion: Q
(Q: 274%, P: 554%)

(1) O=C(c1cscn1)N1CCN(C2CN(C(=O)c3cccc4nc(-c5ccc(F)cc5)oc34)C2)CC1 [Cpd 1282]
(2) O=C(c1ccc2c(c1)c(Cl)cn2-c1ccc(F)cc1)N1CC(N2CCN(C(=O)c3nccs3)CC2)C1 [Cpd 1365]
Prompt: Consider entries 1 and 2 . Which has the numerically lower 2-AG accumulation, % of vehicle control at 1 µM? Please respond with the label that marks your chosen entry.
Completion: 1

(A) O=C(c1ccc2c(ccn2-c2ncc(F)cn2)c1)N1CC(N2CCN(C(=O)c3nccs3)CC2)C1 [Cpd 1147]
(B) O=C(c1ccc(-c2ccc(C(F)(F)F)s2)cc1)N1CCN(C2CN(C(=O)c3nccs3)C2)CC1 [Cpd 1161]
Prompt: Lab note: record which item had the higher 2-AG accumulation, % of vehicle control at 1 µM, A or B . Please respond with the label that marks your chosen entry.
Completion: A
